Biological target: Serine/threonine-protein kinase BRSK1 (Homo sapiens)
Conditions: at 0.1 µM
Description: GSK_PKIS: BRSK1 mean inhibition at 0.1 uM [Nanosyn]
assay-metric: inhibition (%)
One number for each entry, in %.

Completed entries (count: 5):
>  <chem-smiles>
COc1ccc2[nH]c3c4[nH]c5ccc(OC)cc5c4c4c(c3c2c1)C(=O)NC4=O

>  <inhibition / %>
71.3

$$$$
>  <chem-smiles>
CCNC(=O)O[C@H]1CN[C@H](C#Cc2cc3ncnc(Nc4ccc(OCc5cccc(F)c5)c(Cl)c4)c3s2)C1

>  <inhibition / %>
0.67

$$$$
>  <chem-smiles>
Fc1ccc(-c2cc(-c3c[nH]nc3-c3ccccn3)ccn2)cc1

>  <inhibition / %>
-0.21

$$$$
>  <chem-smiles>
c1cc(-c2cnn3nc(N4CCOCC4)ccc23)nc(NC2CC2)n1

>  <inhibition / %>
2.4

$$$$
>  <chem-smiles>
COc1cc(/C=N/Nc2ncnc3[nH]ncc23)ccc1O

>  <inhibition / %>
1.12

$$$$

Hey, quick one: what's inhibition for each of these?
1. c1ccc(COc2ccc(Nc3ncnc4ccc(-c5ccco5)cc34)cc2)cc1
2. CN(C)CCOc1ccc(-c2nc(-c3ccncc3)c(-c3ccc4c(c3)CC/C4=N\O)[nH]2)cc1
3. CCCN1CCC(c2ccc(Nc3nc(Nc4cc(F)ccc4C(N)=O)c4cc[nH]c4n3)c(OC)c2)CC1
4. Nc1nc(-c2cccc(Cl)c2)c(-c2ccc3ncccc3n2)s1
5. Fc1cccc(COc2ccc(Nc3ncnc4sc(-c5ccco5)cc34)cc2Cl)c1

RESULT:
-0.97
-0.13
0.82
0.2
0.38

Hey, quick one: what's inhibition for each of these?
1. COc1ccc2c(-c3ccnc(Nc4cccc(OC(F)(F)F)c4)n3)cnn2n1
2. CS(=O)(=O)CCNCc1coc(-c2ccc3ncnc(Nc4ccc(OCc5ccccc5)cc4)c3c2)c1
3. CCc1nn2ncccc2c1-c1ccnc(NC2CC2)n1
4. FC(F)(F)c1cccc(-c2nn3ncccc3c2-c2ccnc(Nc3ccc4c(c3)OCCO4)n2)c1
5. O=C(Nc1n[nH]c2cc(-c3ccc(F)cc3)ccc12)C1CC1
6. N#Cc1c(NC(=O)c2ccc(F)cc2)sc2c1CCCC2
7. Clc1ccc(-c2nn3ncccc3c2-c2ccnc(Nc3ccccc3)n2)cc1

RESULT:
1. -1.42
2. 1.86
3. 3.05
4. 3.69
5. 4.68
6. 1.51
7. 0.06

Hey, quick one: what's inhibition for each of these?
1. COc1ccc(-c2cc(-c3c[nH]nc3-c3ccccn3)ccn2)cc1
2. COc1ccc(-c2cc3c(N)ncnc3o2)cc1
3. Fc1ccc(-c2nn3ccccc3c2-c2ccncc2)cc1
4. CS(=O)(=O)CCNCc1ccc(-c2ccc3ncnc(Nc4ccc(OCc5ccccc5)c(C(F)(F)F)c4)c3c2)o1
5. CCOc1ccc2c(-c3ccnc(Nc4cccc(C(F)(F)F)c4)n3)cnn2n1

RESULT:
1: -0.01; 2: -0.42; 3: 0.59; 4: 0.14; 5: 1.14

Hey, quick one: what's inhibition for each of these?
1. COc1cccc(-c2c[nH]c3c(N/N=C/c4ccncc4)ncnc23)c1
2. COc1cc(Nc2nccc(Nc3ccc4c(C)n[nH]c4c3)n2)cc(OC)c1OC
3. CNC(=O)c1cccc(C#Cc2cncnc2Nc2ccc(OCc3cccc(F)c3)c(Cl)c2)c1
4. c1ccc(-c2nc3n(c2-c2ccc4c(c2)OCO4)CCC3)nc1

RESULT:
[3.83, 3.57, -0.7, 1.42]

Every entry's value here was drawn from ChEMBL document CHEMBL1961873.
